The entries below are paired with their reported Multi-Tox Assay Max Activity (%).
Molecular target: APOL1 G1 (Homo sapiens, UniProt O14791, I384M/S342G)
Sequence (O14791 28-398 S342G/I384M): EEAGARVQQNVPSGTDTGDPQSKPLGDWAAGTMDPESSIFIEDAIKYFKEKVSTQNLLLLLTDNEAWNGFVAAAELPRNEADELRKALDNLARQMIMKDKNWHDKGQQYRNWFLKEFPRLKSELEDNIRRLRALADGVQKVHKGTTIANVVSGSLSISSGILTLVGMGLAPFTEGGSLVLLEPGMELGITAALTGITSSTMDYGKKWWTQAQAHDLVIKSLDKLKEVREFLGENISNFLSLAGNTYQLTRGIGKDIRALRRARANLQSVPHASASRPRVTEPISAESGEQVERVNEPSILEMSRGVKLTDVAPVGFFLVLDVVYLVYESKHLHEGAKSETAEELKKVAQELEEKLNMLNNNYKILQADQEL
Assay: MultiTox-Fluor Multiplex Cytotoxicity Assay, tet-inducible APOL1 G1 T-REx-HEK293 cells
Format: cell-based
Design: expressed in transfected cells; host or cells: T-REx HEK293, clone G1 DC3.25 (pAAVS1-Puro-APOL1 G1)
Conditions: Multi-Tox Assay; APOL1 variant not given
measurementType: Multi-Tox Assay Max Activity (%)

{"compound": "COc1cccc(Cn2cc([C@@H]3C[C@]4(C[C@H](C)N3)OC[C@@H](O)c3cc(Cl)sc34)nn2)c1 [Compound 278]", "measurementType": "Multi-Tox Assay Max Activity (%)", "measurementUnits": "%", "val": 100.0}
{"compound": "C[C@H]1C[C@@]2(C[C@@H](c3cn(Cc4ccc(C#N)cc4)nn3)N1)OC[C@@H](O)c1cc(Cl)sc12 [Compound 253]", "measurementType": "Multi-Tox Assay Max Activity (%)", "measurementUnits": "%", "val": 100.0}
{"compound": "Cc1ccc([C@@H]2C[C@]3(C[C@H](C)N2)OCCc2cc(Cl)sc23)cn1 (racemic) [Compound 55]", "measurementType": "Multi-Tox Assay Max Activity (%)", "measurementUnits": "%", "val": 99.7}
{"compound": "C[C@H]1C[C@@]2(C[C@@H](c3cc(C(F)(F)F)[nH]n3)N1)OCCc1cc(Cl)sc12 [Compound 119]", "measurementType": "Multi-Tox Assay Max Activity (%)", "measurementUnits": "%", "val": 99.7}
{"compound": "Cc1nc[nH]c1[C@@H]1C[C@]2(C[C@H](C)N1)OCCc1cc(Cl)sc12 (racemic) [Compound 161]", "measurementType": "Multi-Tox Assay Max Activity (%)", "measurementUnits": "%", "val": 92.4}
{"compound": "Cc1nc([C@@H]2C[C@]3(C[C@H](C)N2)OCCc2cc(Cl)sc23)cn1C (racemic) [Compound 159]", "measurementType": "Multi-Tox Assay Max Activity (%)", "measurementUnits": "%", "val": 92.2}
{"compound": "C[C@H]1C[C@@]2(C[C@@H](c3cnc(C4CCOCC4)o3)N1)OCCc1cc(Cl)sc12 (racemic) [Compound 140]", "measurementType": "Multi-Tox Assay Max Activity (%)", "measurementUnits": "%", "val": 99.7}
{"compound": "C[C@H]1C[C@@]2(C[C@@H](c3cn(Cc4ccc(C#N)nc4)nn3)N1)OC[C@@H](O)c1cc(Cl)sc12 [Compound 236]", "measurementType": "Multi-Tox Assay Max Activity (%)", "measurementUnits": "%", "val": 100.0}
{"compound": "C[C@H]1C[C@@]2(C[C@@H](c3cn(CC4CCCCO4)nn3)N1)OCC(F)(F)c1cc(Cl)sc12 (stereo partly drawn) [Compound 343]", "measurementType": "Multi-Tox Assay Max Activity (%)", "measurementUnits": "%", "val": 97.0}
{"compound": "C[C@H]1C[C@@]2(C[C@@H](c3cn(CCCO)nn3)N1)OCC(F)(F)c1cc(Cl)sc12 [Compound 359]", "measurementType": "Multi-Tox Assay Max Activity (%)", "measurementUnits": "%", "val": 98.0}
{"compound": "C[C@H]1C[C@@]2(C[C@@H](c3cn(CCC(N)=O)nn3)N1)OC[C@@H](O)c1cc(Cl)sc12 [Compound 288]", "measurementType": "Multi-Tox Assay Max Activity (%)", "measurementUnits": "%", "val": 97.0}
{"compound": "C[C@H]1C[C@@]2(C[C@@H](c3cn(CC4(CO)CCOCC4)nn3)N1)OC[C@@H](O)c1cc(Cl)sc12 [Compound 240]", "measurementType": "Multi-Tox Assay Max Activity (%)", "measurementUnits": "%", "val": 95.0}
